Molecular target: T1, IL6-R on U266 cells (human, UniProt P08887 20-468)
T1 sequence (looked up): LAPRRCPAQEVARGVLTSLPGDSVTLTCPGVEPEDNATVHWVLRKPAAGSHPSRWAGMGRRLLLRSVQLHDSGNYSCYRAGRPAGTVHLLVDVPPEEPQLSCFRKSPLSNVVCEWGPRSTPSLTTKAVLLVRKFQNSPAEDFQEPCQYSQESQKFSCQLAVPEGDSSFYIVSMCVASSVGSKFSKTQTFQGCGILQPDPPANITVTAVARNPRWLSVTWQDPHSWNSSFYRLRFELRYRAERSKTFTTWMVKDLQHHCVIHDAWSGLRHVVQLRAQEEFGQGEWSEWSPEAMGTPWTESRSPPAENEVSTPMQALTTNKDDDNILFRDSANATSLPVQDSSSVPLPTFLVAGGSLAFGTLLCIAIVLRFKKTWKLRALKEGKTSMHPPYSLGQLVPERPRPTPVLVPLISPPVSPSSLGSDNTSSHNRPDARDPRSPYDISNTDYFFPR
Assay: cell-based or functional assay
value-kind: IC50, TF-1 proliferation (nM)

Observe how each entry below is paired with its result.
IC50, TF-1 proliferation reported for this binder IL6R03 (VHH, also called PMP31A4; PMP 31 A4) VHH: EVQLVESGGGLVQAGGSLRLSCAASGSIFKVNAMGWYRQAPGKQRELVAGIISGGSTNYADSVKGRLTISRDNAKNTVYLQMNSLKPEDTAVYYCSFVTTNSDYDLGRDYWGQGTQVTVSS : 28.1

// sample IL6R10 (VHH, also called PMP35C10; PMP 35 C10) VHH: EVQLVESGGGLVQAGGSLRLSCAASGRTFSSYDMGWYRQAPGKEREFVAVIHWSSGSTYYADPVKGRFTISRDNAKNTVYLQMNSLKPEDTAIYYCNAFLPGPEGFHDYWGQGTQVTVSS , its IC50, TF-1 proliferation was 9.15

[1] IL6R06 (VHH, also called PMP32E2; PMP 32 E2) VHH: EVQLVESGGGLVQAGGSLRLSCAASGNIFDDNTMGWTWNRQPPGKQRELVAIIATDGSTNYADSVKGRFTISRDNAKNTVYLQMNSLKPEDTAVYYCNLFSLRLGRDYWGQGTQVTVSS
[2] IL6R14 (VHH, also called PMP40H5; PMP 40 H5) VHH: EVQLVESGGGLVQPGGSLRLSCAASGFSLDYYAIGWFRQAPGKEREGVSCMDSSSGTTSTYYSDSVKGRFTISRDDAKNTVYLQMNSLKPEDTAVYYCAADGHLNWGQRYVPCSQISWRGWNDYWGQGTQVTVSS
[3] IL6R13 (VHH, also called PMP35H4; PMP 35 H4) VHH: EVQLVESGGGLVQPGGSLRLSCAASGFTFDDYGMSWVRQAPGRATEWVSAISWNGNNTYYTESMKGRFTISRDNAKNTVYLQMNSLKPEDTAVYYCVKGSTAIVGVPPTYPDEYDYWGQGTQVTVSS
[4] IL6R05 (VHH, also called PMP32E10; PMP 32 E10) VHH: EVQLVESGGGLVQPGGSLRLSCAASGFTFGSYDMSWVRQAPGKGPEWVSAINSGGGSTYYADSVKGRFTISRDNAKNTLYLQMNSLKPEDTAVYYCATDWRYSDYDLPLPPPGDYWGQGTQVTVSS
Arrange by IC50, TF-1 proliferation, high to low. Order the labels as requested and list them.
1, 4, 3, 2
(1: 77.2 nM, 4: 19.9 nM, 3: 7.2 nM, 2: 1.75 nM)
